# Target entity: human CB1 receptors (Homo sapiens, UniProt P21554)
# Construct: expressed in transfected cells; host or cells: CHO cells
# Sequence (P21554 whole entry): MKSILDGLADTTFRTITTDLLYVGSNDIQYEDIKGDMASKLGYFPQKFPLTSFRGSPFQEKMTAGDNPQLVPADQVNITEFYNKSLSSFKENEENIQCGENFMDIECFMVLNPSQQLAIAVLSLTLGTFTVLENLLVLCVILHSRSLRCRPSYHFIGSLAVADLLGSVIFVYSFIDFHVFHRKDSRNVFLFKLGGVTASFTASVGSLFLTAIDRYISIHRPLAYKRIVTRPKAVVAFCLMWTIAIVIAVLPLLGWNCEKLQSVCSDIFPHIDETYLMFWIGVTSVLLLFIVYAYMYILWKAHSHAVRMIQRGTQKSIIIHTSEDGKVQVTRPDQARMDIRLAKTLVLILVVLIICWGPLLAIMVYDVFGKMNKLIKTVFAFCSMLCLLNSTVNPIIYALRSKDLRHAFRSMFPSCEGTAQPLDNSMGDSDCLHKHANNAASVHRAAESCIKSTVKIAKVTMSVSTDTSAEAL
# Assay remarks: functional cAMP assay, CHO cells expressing human CB1
# Assay type: cell-based
pEC50: −log10 of the molar value.
Assay readout: pEC50

The cases that follow already have their pEC50 on record.
O=C(N1Cc2cc(Cl)c(N3CCOCC3)cc2C1)C12CC3CC(CC(C3)C1)C2 [Example 43] | < 5.00
COC(=O)c1cccc2c1CCN2C(=O)[C@]12C[C@H]3C[C@H](C[C@H](C3)C1)C2 [Example 24] | < 5.00

# evaluate next
**Query** Returns the measured pEC50 for the input compound. Input: CN1CCN(C(=O)C23C[C@H]4C[C@@H](C2)C[C@@H](C3)C4)c2ccccc21 [Example 31]
**Result** < 5.00

====

# Target entity: human CB2 receptors (Homo sapiens, UniProt P34972)
# Construct: expressed in transfected cells; host or cells: CHO cells
# Sequence (P34972 whole entry): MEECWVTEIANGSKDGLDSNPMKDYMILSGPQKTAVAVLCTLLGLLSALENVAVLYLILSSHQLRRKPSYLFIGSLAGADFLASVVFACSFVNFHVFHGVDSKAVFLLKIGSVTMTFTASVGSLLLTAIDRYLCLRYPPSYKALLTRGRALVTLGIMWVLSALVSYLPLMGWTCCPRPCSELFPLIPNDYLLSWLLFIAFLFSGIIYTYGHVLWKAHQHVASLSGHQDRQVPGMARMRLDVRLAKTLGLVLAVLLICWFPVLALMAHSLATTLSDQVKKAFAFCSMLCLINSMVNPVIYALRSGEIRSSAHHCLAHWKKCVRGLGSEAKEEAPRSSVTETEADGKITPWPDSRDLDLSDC
# Assay remarks: functional cAMP assay, CHO cells expressing human CB2
# Type: cell-based
# Protocol conditions: CHO cells expressing human CB2; read-out: Ec50:CB2 - hu cAMP
pEC50: −log10 of the molar value.
Decide by pEC50: equal to or exceeding 7 means t, less means f.

Please review the entries below; each comes with its answer.
O=C(N1Cc2ccccc2C1)C12CC3CC(CC(C3)C1)C2 [Example 21] | t
CC1Cc2ccccc2N1C(=O)C12CC3CC(CC(C3)C1)C2 (centres unmarked) [Example 10] | f

With those in mind, consider the next molecule.
**Query** Item COC1CCN(C(=O)C23CC4CC(CC(C4)C2)C3)c2ccccc21 (centres unmarked) [Example 36] with pEC50 of 7 or above?
**Result** t

====

# Target entity: human CB2 receptors (Homo sapiens, UniProt P34972)
# Construct: expressed in transfected cells; host or cells: CHO cells
# Assay remarks: functional cAMP assay, CHO cells expressing human CB2
# Type: cell-based
Class (required): determined from EC50; valid ranges are lo = under 10 nM, mid = from 10 nM up to 30 nM, hi = 30 nM and over

**Query** Please indicate the class for O=C(C1[C@H]2C[C@@H]3C[C@@H](C[C@H]1C3)C2)N1CCc2ccccc21 (stereo partly drawn) based on its EC50.
**Result** lo

====

# Target entity: human CB2 receptors (Homo sapiens, UniProt P34972)
# Construct: expressed in transfected cells; host or cells: CHO cells
# Assay remarks: functional cAMP assay, CHO cells expressing human CB2
# Type: cell-based
# Protocol conditions: CHO cells expressing human CB2; read-out: Ec50:CB2 - hu cAMP
Please respond with fulfilled when measured EC50 is strictly beneath 40 nM, and with not fulfilled in all other cases.

Please review the entries below; each comes with its answer.
Cc1ccc2c(c1)N(C(=O)C13CC4CC(CC(C4)C1)C3)CC2 | fulfilled
COC(=O)C1Cc2ccccc2N(C(=O)C23CC4CC(CC(C4)C2)C3)C1 (stereo not shown) | not fulfilled
CC(C)(C)NC(=O)C1CCN(C(=O)C23CC4CC(CC(C4)C2)C3)c2ccccc21 (stereo not shown) | not fulfilled
COC(=O)c1ccc2c(c1)CCN2C(=O)C12CC3CC(CC(C3)C1)C2 | not fulfilled
O=C(N1Cc2cccc(F)c2C1)C12CC3CC(CC(C3)C1)C2 | not fulfilled
CC(C)OC1CCN(C(=O)C23CC4CC(CC(C4)C2)C3)c2ccccc21 (stereo not shown) | not fulfilled

**Query** Answer whether the compound O=C(N1Cc2ccc(F)cc2C1)C12CC3CC(CC(C3)C1)C2 has EC50 strictly less than 40 nM
**Result** not fulfilled

**Query** Next entry: O=C(NC12CC3CC(CC(C3)C1)C2)N1CCc2ccccc21
**Result** fulfilled

**Query** Next entry: CC(C)C1(CO)CCN(C(=O)C23CC4CC(CC(C4)C2)C3)c2ccccc21 (stereo not shown)
**Result** not fulfilled

**Query** Next entry: O=C(N1CCc2cc(F)ccc21)C12CC3CC(CC(C3)C1)C2
**Result** fulfilled

**Query** Next entry: O=C(N1CCc2c1ccnc2Cl)C12CC3CC(CC(C3)C1)C2
**Result** not fulfilled

**Query** Next entry: O=C(N1CCC(O)c2ccccc21)C12CC3CC(CC(C3)C1)C2 (stereo not shown)
**Result** not fulfilled

====

# Target entity: human CB2 receptors (Homo sapiens, UniProt P34972)
# Construct: expressed in transfected cells; host or cells: CHO cells
# Assay remarks: functional cAMP assay, CHO cells expressing human CB2
# Format: cell-based
# Protocol conditions: CHO cells expressing human CB2; read-out: Ec50:CB2 - hu cAMP
Assay readout: EC50 (µM)
Give bare numbers, in µM.

O=C(N1CCc2cc([N+](=O)[O-])ccc21)C12CC3CC(CC(C3)C1)C2 [Example 14] | 0.082
O=C(N1CCc2ccccc21)C12CC3CC(CC(O)(C3)C1)C2 [Example 41] | 0.492
CC1c2ccccc2N(C(=O)C23C[C@H]4C[C@@H](C2)C[C@@H](C3)C4)C1C (stereo partly drawn) [Example 25] | 0.163
Cc1cccc2c1N(C(=O)C13CC4CC(CC(C4)C1)C3)CCC2 [Example 8] | 0.277
O=C(NC12CC3CC(CC(C3)C1)C2)N1Cc2ccccc2C1 [Example 42] | 0.0221
Cc1cccc2c1CCN2C(=O)C12CC3CC(CC(C3)C1)C2 [Example 30] | 0.0043
COc1cccc2c1CCN2C(=O)C12CC3CC(CC(C3)C1)C2 [Example 29] | 0.0296
O=C(N1CCc2ccccc21)C12CC3CC(CC(C3)C1)C2 [Example 11] | 0.0232

# evaluate next
**Query** Returns the measured EC50 for the input molecule. Input: O=C(N1CCOc2ccccc21)C12CC3CC(CC(C3)C1)C2 [Example 7]
**Result** 0.18

====

Kindly supply the reported log10 EC50 values for the records listed here.
# Target entity: human CB2 receptors (Homo sapiens, UniProt P34972)
# Construct: expressed in transfected cells; host or cells: CHO cells
# Assay remarks: functional cAMP assay, CHO cells expressing human CB2
# Format: cell-based
# Description: The growth medium was exchanged with Krebs Ringer Bicarbonate buffer with 1 mM IBMX and incubated at 30° C. for 30 min. Compounds were added to a final assay volume of 100 μl and incubated for 30 min at 30° C. […] The time-resolved energy transfer is measured by a TRF reader (Evotec Technologies GmbH), equipped with a ND:YAG laser as excitation source. […] EC50 values were determined using Activity Base analysis (ID Business Solution, Limited).
Transform log10 | Measure EC50 | Unit nM

The cases that follow already have their log10 EC50 on record.
O=C(N1CCc2ccc([N+](=O)[O-])cc21)C12CC3CC(CC(C3)C1)C2 | 1.29
COC(=O)c1cccc2c1CCN2C(=O)[C@]12C[C@H]3C[C@H](C[C@H](C3)C1)C2 | 1.62
O=C(N1CCc2ccc(C(F)(F)F)cc21)C12CC3CC(CC(C3)C1)C2 | 1.16

// for each compound in input: emit log10 EC50
1. O=C(N1Cc2cc(Cl)c(N3CCOCC3)cc2C1)C12CC3CC(CC(C3)C1)C2
2. O=C(N1CCc2c(F)cc(F)cc21)C12CC3CC(CC(C3)C1)C2
3. CN1CCN(C(=O)C23C[C@H]4C[C@@H](C2)C[C@@H](C3)C4)c2ccccc21
4. CC1(C)CN(C(=O)C23C[C@H]4C[C@@H](C2)C[C@@H](C3)C4)c2ccccc21

**Result**
1.91
1.73
1.46
1.20

// for each compound in input: emit log10 EC50
1. COc1cccc2c1N(C(=O)C13CC4CC(CC(C4)C1)C3)CC2
2. Cc1cccc2c1N(C(=O)C13CC4CC(CC(C4)C1)C3)CC2

**Result**
1.42
1.75

====

# Target entity: human CB2 receptors (Homo sapiens)
# Construct: expressed in transfected cells; host or cells: CHO cells
# Assay remarks: functional cAMP assay, CHO cells expressing human CB2
# Format: cell-based
# Protocol conditions: CHO cells expressing human CB2; read-out: Ec50:CB2 - hu cAMP
Assay readout: pEC50
One number for each entry, as −log10 of the molar value.

O=C1CCN(C(=O)C23CC4CC(CC(C4)C2)C3)c2ccccc21 [Example 3] | 6.48
Cc1ccc2c(c1)CCN2C(=O)C12CC3CC(CC(C3)C1)C2 [Example 26] | 7.98
O=C(N1CCc2cc(F)c(F)cc21)C12CC3CC(CC(C3)C1)C2 [Example 39] | 7.75

# evaluate next
**Query** Returns the measured pEC50 for the input compound. Input: O=C1C2CC3CC1CC(C(=O)N1CCc4ccccc41)(C3)C2 [Example 40]
**Result** 6.23

====

Kindly supply the reported EC50 values for the records listed here.
# Target entity: human CB2 receptors (Homo sapiens, UniProt P34972)
# Construct: expressed in transfected cells; host or cells: CHO cells
# Assay remarks: functional cAMP assay, CHO cells expressing human CB2
# Format: cell-based
Give bare numbers, in nM.

CC(C)N1CCN(C(=O)C23CC4CC(CC(C4)C2)C3)c2ccccc21 [Example 32] | 6.2

// for each compound in input: emit EC50
1. CCOC1CCN(C(=O)C23CC4CC(CC(C4)C2)C3)c2ccccc21 (centres unmarked) [Example 12]
2. COCCOC1CCN(C(=O)C23CC4CC(CC(C4)C2)C3)c2ccccc21 (centres unmarked) [Example 33]
3. CCCCOC1CCN(C(=O)C23CC4CC(CC(C4)C2)C3)c2ccccc21 (centres unmarked) [Example 34]
4. O=C(N1CCc2cc(Br)ccc21)C12CC3CC(CC(C3)C1)C2 [Example 15]

**Result**
18.6
21.3
7.2
11.5
